Catalogue of pIC50 values
tested on: BGC-823; assay: Cytotoxicity against human BGC823 cells after 96 hrs by MTT assay; settings: BGC-823, 96 h
Bear in mind: pIC50 is minus log10 of a mol/L concentration; give just that figure.

Some compounds with recorded pIC50:
COC(=O)[C@H](NC(=O)Cn1cc(C2=C(c3c[nH]c4ccccc34)C(=O)N(C)C2=O)c2ccccc21)[C@@H](C)O (single isomer, unassigned); 4.63
COC(=O)C(C)NC(=O)Cn1cc(C2=C(c3c[nH]c4ccccc34)C(=O)N(C)C2=O)c2ccccc21 (single isomer, unassigned); 4.22

Q: For the compound COC(=O)CNC(=O)Cn1cc(C2=C(c3c[nH]c4ccccc34)C(=O)N(C)C2=O)c2ccccc21 , what pIC50 is on record?
Ans: 4.05

Q: For the compound COC(=O)C(Cc1c[nH]c2ccccc12)NC(=O)Cn1cc(C2=C(c3c[nH]c4ccccc34)C(=O)N(C)C2=O)c2ccccc21 (single isomer, unassigned) , what pIC50 is on record?
Ans: 5.43

Q: For the compound COC(=O)[C@H](NC(=O)Cn1cc(C2=C(c3c[nH]c4ccccc34)C(=O)N(C)C2=O)c2ccccc21)C(C)C , what pIC50 is on record?
Ans: 4.32

Q: For the compound COC(=O)CC(NC(=O)Cn1cc(C2=C(c3c[nH]c4ccccc34)C(=O)N(C)C2=O)c2ccccc21)C(=O)OC (single isomer, unassigned) , what pIC50 is on record?
Ans: 4.61

Q: For the compound COC(=O)CCNC(=O)Cn1cc(C2=C(c3c[nH]c4ccccc34)C(=O)N(C)C2=O)c2ccccc21 , what pIC50 is on record?
Ans: 4.35

Q: For the compound COC(=O)C(Cc1ccccc1)NC(=O)Cn1cc(C2=C(c3c[nH]c4ccccc34)C(=O)N(C)C2=O)c2ccccc21 (single isomer, unassigned) , what pIC50 is on record?
Ans: 4.01

Q: For the compound COC(=O)[C@@H](CO)NC(=O)Cn1cc(C2=C(c3c[nH]c4ccccc34)C(=O)N(C)C2=O)c2ccccc21 , what pIC50 is on record?
Ans: 4.54

Q: For the compound COC(=O)CCC(NC(=O)Cn1cc(C2=C(c3c[nH]c4ccccc34)C(=O)N(C)C2=O)c2ccccc21)C(=O)OC (single isomer, unassigned) , what pIC50 is on record?
Ans: 4.60

Q: For the compound COC(=O)C(CC(C)C)NC(=O)Cn1cc(C2=C(c3c[nH]c4ccccc34)C(=O)N(C)C2=O)c2ccccc21 (single isomer, unassigned) , what pIC50 is on record?
Ans: 4.34
